Hey, just so you know, these numbers are from the supplement of paper PMC12645437.

Please go through the items and note down their log2 fold change of degron read counts.
Molecular target: T1, CRBN, Q96SW2;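 note: pooled lentiviral library of zinc finger degron-EGFP fusions in mCherry-positive Jurkat cells, FACS-sorted after compound exposure, with degron abundance counted by next-generation sequencing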
T1 chain: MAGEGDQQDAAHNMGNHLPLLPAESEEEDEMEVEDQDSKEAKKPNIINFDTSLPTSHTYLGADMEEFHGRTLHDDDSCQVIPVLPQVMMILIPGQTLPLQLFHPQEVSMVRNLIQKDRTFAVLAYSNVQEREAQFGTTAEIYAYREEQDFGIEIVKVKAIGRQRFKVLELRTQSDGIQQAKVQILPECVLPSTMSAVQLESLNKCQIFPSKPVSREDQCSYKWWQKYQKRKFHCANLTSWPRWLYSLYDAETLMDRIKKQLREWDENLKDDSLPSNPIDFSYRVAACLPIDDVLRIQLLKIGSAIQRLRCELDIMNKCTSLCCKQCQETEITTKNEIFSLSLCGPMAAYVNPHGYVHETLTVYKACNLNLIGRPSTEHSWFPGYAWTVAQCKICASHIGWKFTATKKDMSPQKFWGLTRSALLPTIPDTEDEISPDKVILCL
Assay: log2 fold change of degron read counts, EGFP-low vs EGFP+ sorted cells (limma voom), compound-induced degradation; higher = more compound-induced degradation of the degron-EGFP fusion; degrons are variants of IKZF1/3 zinc finger 2; compound dose not given here
Settings: Jurkat; 18 h; compound: compound 33 (diphenyl IMiD analogue)
Whole data set: some 8,300 sequences, median “log2 fold change of degron read counts, EGFP-low vs EGFP+ sorted cells (limma voom), compound-induced degradation” near -1.1, cut for the highest 2% near 3.2. The sample as a whole holds a higher share of the highest values than the screen did.
Just the number.

Please report the recorded log2 fold change of degron read counts for FHCEICGAGFTQKGNLLRHIKL [46F_47H_49E_50I_52G_53A_54G_55F_67L_, Q9UKT9] .
1.93

Give the measured log2 fold change of degron read counts of FFCEVCGAVFTQKGNLLRHIKL [46F_47F_49E_50V_52G_53A_54V_55F_67L_, Q9UKT9] .
1.92

Field request: log2 fold change of degron read counts | item: FTCPVCGAAFTQKGNLLRHIKL [46F_47T_49P_50V_52G_53A_54A_55F_67L_, Q9UKT9]
2.78

log2 fold change of degron read counts for FHCPICGHTFTQKGNLLRHIKL [46F_47H_49P_50I_52G_53H_54T_55F_67L_, Q9UKT9] ?
-1.31

Bench note: what log2 fold change of degron read counts did FYCPQCGAFFTQKGNLLRHIKL [46F_47Y_49P_50Q_52G_53A_54F_55F_67L_, Q9UKT9] show?
0.837

Entry under review: FTCEICGAGFTQKGNLLRHIKL [46F_47T_49E_50I_52G_53A_54G_55F_67L_, Q9UKT9] . Reported log2 fold change of degron read counts?
2.28

Record request: log2 fold change of degron read counts value, item FTCEVCGAAFTQKGNLLRHIKL [46F_47T_49E_50V_52G_53A_54A_55F_67L_, Q9UKT9]
2.06

For the sequence shown here, LFCEICGFTCTQKGNLLRHIKL [46L_47F_49E_50I_52G_53F_54T_55C_67L_, Q9UKT9] , give the reported log2 fold change of degron read counts.
2.59

Which value of log2 fold change of degron read counts has been reported for FQCEVCGAVFTQKGNLLRHIKL [46F_47Q_49E_50V_52G_53A_54V_55F_67L_, Q9UKT9] in the records?
2.39

Look up log2 fold change of degron read counts: FVCPQCGASFTQKGNLLRHIKL [46F_47V_49P_50Q_52G_53A_54S_55F_67L_, Q9UKT9]
0.703

Which log2 fold change of degron read counts value is on record for FCCEVCGAVFTQKGNLLRHIKL [46F_47C_49E_50V_52G_53A_54V_55F_67L_, Q9UKT9] ?
2.68

Please look up its log2 fold change of degron read counts: FACEVCGAVFTQKGNLLRHIKL [46F_47A_49E_50V_52G_53A_54V_55F_67L_, Q9UKT9]
1.3

# query: log2 fold change of degron read counts of entry FACEICGAGFTQKGNLLRHIKL [46F_47A_49E_50I_52G_53A_54G_55F_67L_, Q9UKT9]
0.304
